- METHOD DESCRIPTION: Cell toxicity assay (ATP depletion, CellTiter Glo)
- CONDITION PARAMETERS: human
READOUT LABEL: IC50 at 72 h (µM)
Answers are plain numbers, in µM.

1. Cc1ccc(-c2cn3cccc(C)c3n2)cc1S(=O)(=O)N1CCCC1 :: 59.7

Now look at this one.
Query: What does the data say about its IC50 at 72 h? Entry: Cc1cccn2cc(-c3cccc(S(=O)(=O)N4CCC(C)CC4)c3)nc12
Reply: 78.4

###

- EXPERIMENTAL SYSTEM: QR1 (NQO1) (Homo sapiens, UniProt P15559)
- Construct: purchased Sigma-Aldrich
- Sequence (P15559 whole entry): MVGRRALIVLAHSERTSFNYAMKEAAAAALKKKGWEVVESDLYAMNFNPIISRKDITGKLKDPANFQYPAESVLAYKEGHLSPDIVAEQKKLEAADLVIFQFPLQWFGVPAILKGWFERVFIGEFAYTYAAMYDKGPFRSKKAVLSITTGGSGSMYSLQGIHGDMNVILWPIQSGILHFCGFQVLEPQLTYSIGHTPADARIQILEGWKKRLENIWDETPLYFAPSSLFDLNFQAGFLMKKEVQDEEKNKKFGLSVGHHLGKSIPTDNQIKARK
- METHOD DESCRIPTION: Selectivity assay with QR1 in place of QR2, fluorescence readout
- Assay type: biochemical
Give IC50 for every item shown.

List IC50 for every entry below, keeping the order given.
1. CC(=O)N1CCOc2ccc(S(=O)(=O)N3CCCc4ccccc43)cc21
2. Cc1cccn2cc(-c3cccc(S(=O)(=O)NCCCN4CCCC4=O)c3)nc12
3. Cc1cc(-c2ccc(C)c(S(=O)(=O)N(C)C)c2)n[nH]1
4. Cc1c(C)c(C)c(S(=O)(=O)N2CCNC(=O)C2)c(C)c1C

Reply:
1: 4.7 µM; 2: > 9.99 µM; 3: > 9.99 µM; 4: > 9.8 µM
